Molecular target: T1, HNF4α ΔABΔF (DBD-hinge-LBD) (human, UniProt P41235-2 55-377)
T1 sequence: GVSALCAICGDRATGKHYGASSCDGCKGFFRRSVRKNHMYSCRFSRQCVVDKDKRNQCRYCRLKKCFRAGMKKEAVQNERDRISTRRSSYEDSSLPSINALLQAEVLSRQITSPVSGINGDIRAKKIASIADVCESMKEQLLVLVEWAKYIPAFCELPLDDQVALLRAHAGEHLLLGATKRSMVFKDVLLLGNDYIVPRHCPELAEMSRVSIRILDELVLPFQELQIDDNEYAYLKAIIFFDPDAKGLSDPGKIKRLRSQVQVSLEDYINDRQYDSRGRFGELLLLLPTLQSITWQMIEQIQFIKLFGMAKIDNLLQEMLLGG
Assay: fluorescence anisotropy
observed property: pKd
Please treat pKd as minus the base-10 logarithm of the molar concentration.

Entry DR1 (5'-fluorescein top strand) (dsDNA) DNA 1: GGAACTAGGTCAAAGGTCAG DNA 2: CCTGACCTTTGACCTAGTTC — recorded pKd = 7.09
